target: Biotin-conjugated ^MBPPBD (immobilised ligand of BLI) (human) (UniProt P53350); experiment: BLI; biotin-conjugated ^MBPPBD immobilised on streptavidin sensors, CENP-U variants as analyte; 25 °C, 20 mM HEPES pH 7.5, 2.5% glycerol, 300 mM NaCl, 0.1 mM TCEP, 0.3 g/L BSA, 0.05% Tween20; KD from koff/kon of the global fit
Sequence (P53350 345-603): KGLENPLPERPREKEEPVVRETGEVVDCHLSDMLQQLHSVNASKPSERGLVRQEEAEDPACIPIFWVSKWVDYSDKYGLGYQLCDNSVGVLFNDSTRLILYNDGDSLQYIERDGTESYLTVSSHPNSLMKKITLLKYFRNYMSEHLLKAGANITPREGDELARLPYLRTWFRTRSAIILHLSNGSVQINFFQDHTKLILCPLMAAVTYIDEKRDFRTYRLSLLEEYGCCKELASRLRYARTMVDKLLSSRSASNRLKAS
Test Readout: Kd (nM)

Substance: ^MBPCENP-U^84-114/pT98 (from UniProt Q71F23 84-114) (domain or fragment)
Test Readout: Kd
Recorded Result: 400
